system: Brain; test: Antioxidant activity in Wistar rat brain homogenates assessed as inhibition of lipid peroxidation at 17.78 uM by spectrophotometry based TBARS assay relative to untreated control; type: functional, tissue-based
attributeMeasured: inhibition (%)
Give bare numbers, in %.

Some entries whose results are on file:
compound | testedOn | unitSpec | numericResult
CC(=O)NCCc1cn(C2=C(C)C(=O)C(O)=C([C@H](C)CCC=C(C)C)C2=O)c2ccccc12 | Brain | % | 30
COc1ccc2c(c1)c(CCNC(C)=O)cn2C1=C(C)C(=O)C(O)=C([C@H](C)CCC=C(C)C)C1=O | Brain | % | 19
CC(C)=CCC[C@@H](C)C1=CC(=O)C(C)=C(O)C1=O [ISOPEREZONE] | Brain | % | 25.2

Supply measured inhibition of CC(C)=CCC[C@@H](C)C1=C(O)C(=O)C(C)=CC1=O [PEREZONE] in your reply.
16
